Ref: ChEMBL document CHEMBL1201862

- System: IGROV-1
- method-notes: NCI tumour cell line growth inhibition, 48 h
Activity calls are given as the source filed them. No stated cut-off is given here; in the data, active = GI50 up to about 1.1 µM and inactive = higher.
observed-property: GI50

| compound | GI50 |
| --- | --- |
| COc1ccc(C=C2C(=O)OC(C)(C)OC2=O)cc1OC | > 100 µM (inactive) |

Record O=C(NC1CCCCC1)N1CCNC1=S , field GI50: > 100 µM (inactive)

Notebook: COc1ccc(/C=C/NC=O)cc1 , GI50 read as > 100 µM (inactive)

Lookup result for COc1cc(CNC(=O)[C@H](Cc2ccc(O)cn2)NC(C)=O)cc(OC)c1 ; measured GI50: 36.3 µM (inactive)

# GI50 (compound: N#Cc1ccccc1C#C/C=C\C#Cc1ccccn1 ) is 17 µM (inactive)

According to the records, this compound O=C(Nc1ccc(Cl)cc1)c1cccc([N+](=O)[O-])c1O displays GI50 of 3.03 µM (inactive)

Query Nc1n2nc(-c3ccccc3)sc2n[n+]1CC(=O)c1ccccc1 yields GI50 of 12.6 µM (inactive)

The compound listed as CCCCCCCCCC(=O)CC(=O)c1c(O)cc(O)cc1O has a reported GI50 of 26.5 µM (inactive)

Looking up CCCCCCCC/C=C1\CCC(CN(C)C)C1=O (stereo not given) , I found its GI50 recorded as 8.17 µM (inactive)

// C=Cn1c([N+](=O)[O-])cnc1/C=C/c1ccc(C(=O)OCCN2CCOCC2)cc1 : GI50 value = > 100 µM (inactive)

---

- Tested on: SNB-19
- method-notes: NCI tumour cell line growth inhibition, 48 h
The source made the active and inactive calls. Rule as the data show it: active = GI50 up to about 1.1 µM and inactive = higher.
The reader will find reported GI50 values listed item by item below.

| molecule | GI50 |
| --- | --- |
| COc1ccc(/C=C2/CCS(=O)(=O)c3ccc(C)cc3C2=O)cc1OC | 14.1 µM (inactive) |
| C[C@@H]1CC[C@@]2(C)OC(c3ccccc3)[C@H](CO)N2C1=O (some centres not stated) | > 100 µM (inactive) |
| COc1ccc(C2Oc3cc(OC)c(O)c(C)c3[C@H]2C)cc1 (some centres not stated) | 26.9 µM (inactive) |
| CC(=O)/N=C1\C=C(NC(C)=O)C(=O)c2ccccc21 | 3.03 µM (inactive) |

Please fill in: GI50 reported for N#Cc1ccccc1C#C/C=C\C#Cc1ccccn1 = 25.9 µM (inactive)

// Cc1ccc(NC(=O)C(=O)Cc2nc3ccccc3o2)c(C)c1 : GI50 value = > 100 µM (inactive)

Consider CC1(C)[C@H]2CC[C@]1(C)[C@H](OC(=O)NNC(=O)O[C@@H]1C[C@@H]3CC[C@@]1(C)C3(C)C)C2 . Its measured GI50 is 19.5 µM (inactive)

---

Measured GI50 of individual entries
- System: UACC-257
- method-notes: NCI tumour cell line growth inhibition, 48 h
The source made the active and inactive calls. Cut-off read from the data, not from the text of the source: active = GI50 up to about 1.1 µM and inactive = higher.

| compound | GI50 |
| --- | --- |
| CCOc1cc(NC(C)=O)ccc1C(=O)N/N=C/c1ccco1 | > 100 µM (inactive) |
| Cc1cc2ccccc2c[n+]1CC(=O)CC([O-])(C(F)(F)F)C(F)(F)F | > 100 µM (inactive) |

Form: compound = N#C/C=C\c1ccc(-c2cc(C(F)(F)F)cc(C(F)(F)F)c2)o1 ; GI50 = > 100 µM (inactive)

Record CCOC(=O)C(NC(=O)c1nc[nH]c1[N+](=O)[O-])C(C)C (stereo not given) , field GI50: 94.8 µM (inactive)

The compound identified as CCSc1nc(N)c2c(-c3ccccc3)c3c(nc2n1)CCC3 registered its GI50 at > 100 µM (inactive)
